The measurements presented in this section are drawn from patent US20210347873A1.

Would you mind telling me the reported MFI of each entry?
# Target under test: T1, human BLyS (full length, arginine to histidine at position 132) on CHO-K1 cells (human, UniProt Q9Y275 1-285)
# T1 construct: also called hBLyS; CHO-K1 hBLyS
# T1 sequence (Q9Y275 whole entry R130H): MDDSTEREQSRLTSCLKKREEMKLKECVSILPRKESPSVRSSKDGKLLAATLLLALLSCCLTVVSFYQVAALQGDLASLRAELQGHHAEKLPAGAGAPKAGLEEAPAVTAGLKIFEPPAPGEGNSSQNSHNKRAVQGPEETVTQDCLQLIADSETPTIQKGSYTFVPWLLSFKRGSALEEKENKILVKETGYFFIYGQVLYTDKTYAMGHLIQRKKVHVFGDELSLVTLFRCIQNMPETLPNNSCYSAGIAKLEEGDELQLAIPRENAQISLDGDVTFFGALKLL
# Assay comment: flow cytometry, CHO-K1 hBLyS cells, antibody 0.534 nM
Numbers only, in MFI.

Given the entry 20D1B6E9E5 (antibody, V domains shown, Mouse hybridoma monoclonal antibody purified on Protein G) VH: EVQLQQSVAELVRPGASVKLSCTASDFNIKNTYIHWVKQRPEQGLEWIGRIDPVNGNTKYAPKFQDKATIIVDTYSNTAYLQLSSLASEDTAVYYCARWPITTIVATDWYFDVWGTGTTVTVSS VL: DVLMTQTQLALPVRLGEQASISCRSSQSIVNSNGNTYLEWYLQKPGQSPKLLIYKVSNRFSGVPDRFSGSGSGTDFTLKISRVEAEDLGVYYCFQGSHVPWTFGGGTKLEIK , report its measured MFI.
402

Then what about the binder 97E7B3F2 (antibody, V domains shown, Mouse hybridoma monoclonal antibody purified on Protein G) VH: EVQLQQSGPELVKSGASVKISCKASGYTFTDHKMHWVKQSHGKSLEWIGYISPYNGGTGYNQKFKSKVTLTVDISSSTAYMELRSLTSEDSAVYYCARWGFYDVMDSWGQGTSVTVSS VL: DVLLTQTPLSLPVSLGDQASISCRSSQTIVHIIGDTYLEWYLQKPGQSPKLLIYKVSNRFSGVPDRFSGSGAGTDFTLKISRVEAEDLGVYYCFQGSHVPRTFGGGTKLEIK ?
318

// switching to the query binder
# query: MFI of entry 2-1G11 (antibody, V domains shown, From a human naive scFv phage library; also called human BLyS antibody 2-1G11) VH: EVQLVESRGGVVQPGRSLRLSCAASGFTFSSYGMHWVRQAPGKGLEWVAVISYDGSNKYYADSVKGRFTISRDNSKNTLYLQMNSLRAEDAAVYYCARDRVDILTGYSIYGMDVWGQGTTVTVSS VL: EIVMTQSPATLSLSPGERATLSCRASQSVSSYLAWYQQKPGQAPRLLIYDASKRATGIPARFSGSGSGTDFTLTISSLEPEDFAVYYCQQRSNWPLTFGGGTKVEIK
591
